{"Molecule": "COc1c2c(c(OC)c(OC)c1OC)CCC(CCOc1ccc(-c3ccccc3)cc1)CC2", "melting point": "115 to 120 °C"}
{"Molecule": "Cc1cc(-n2cncn2)cc(I)c1N", "melting point": "151 to 154 °C"}
{"Molecule": "Cn1c(=O)c2cc([N+](=O)[O-])cnc2n(C)c1=O", "melting point": "203 to 205 °C"}
{"Molecule": "C=CCN1C2CCC1C1CCC2N1C(c1ccc(C(=O)N(C)C)cc1)c1cccc(O)c1 (stereo not given)", "melting point": "99 to 101 °C"}
{"Molecule": "O=C1OC(CCI)C(O)=C1O (stereo not given)", "melting point": "150 to 151 °C"}
{"Molecule": "CSC1=C(Cl)CC2C3CCC4=CC(=O)C=CC4(C)C3(F)C(O)CC12C (stereo not given)", "melting point": "262 to 268 °C"}
{"Molecule": "COCOc1ccc(N2C(=O)[C@@H](N=[N+]=[N-])[C@H]2C=Cc2ccccc2)cc1 (relative stereo)", "melting point": "111 to 112 °C"}
{"Molecule": "NCCCN1CCOC(c2ccccc2)(c2ccccc2)CC1", "melting point": "68 to 70 °C"}
{"Molecule": "Cc1ccc(C(=O)Nc2ccc(C)c(-c3nc(S(C)(=O)=O)nc4c3CNC(=O)N4c3c(F)cccc3F)c2)cc1F", "melting point": "> 270 °C"}
{"Molecule": "CCc1nc(N)nc(N)c1-c1ccc(N(C)C)c([N+](=O)[O-])c1", "melting point": "256 to 258 °C"}
{"Molecule": "O=C(O)CNC1CCCc2ccccc21 (stereo not given)", "melting point": "227 °C"}
{"Molecule": "COc1ccccc1N(CN1C(=O)CN(C)C1=O)C(C)=O", "melting point": "169 to 172 °C"}
{"Molecule": "Nc1ncc(-c2ccccc2)nc1Br", "melting point": "148 to 152 °C"}
{"Molecule": "COc1cc(N2CCC(N3CCOCC3)CC2)ccc1Nc1ncc2ccc(-c3ccccc3S(C)(=O)=O)n2n1", "melting point": "111 to 112 °C"}
{"Molecule": "Cc1cc(C)cc(COC(=O)C(Cc2c[nH]c3ccccc23)NC(=O)OC(C)(C)C)c1 (stereo not given)", "melting point": "152 to 153 °C"}
{"Molecule": "CCOC(=O)C(C)OCc1cc2cc(C(F)(F)F)ccc2n1S(=O)(=O)c1cc(OC)ccc1OC (stereo not given)", "melting point": "130 to 132 °C"}
{"Molecule": "CCCC1COC(Cn2cncn2)(c2ccc(Oc3ccccc3)cc2)O1 (stereo not given)", "melting point": "68.5 to 71 °C"}
{"Molecule": "O=CC=C(c1ccccc1)c1ccccc1", "melting point": "45 to 46.5 °C"}
{"Molecule": "O=C(Nc1ccc(Cl)cc1)NS(=O)(=O)c1ccc2c(c1)CCCC2", "melting point": "163 to 165 °C"}
{"Molecule": "CCOC(=O)C1=C(COCc2nnn(CCNc3nc(N)n[nH]3)n2)NC(C)=C(C(=O)OC)C1c1cccc(Cl)c1Cl (stereo not given)", "melting point": "85 °C"}
{"Molecule": "CN1CC(CO)C2c3cccc4c3c(cn4S(=O)(=O)c3ccccc3)CC21 (stereo not given)", "melting point": "124 to 127 °C"}
{"Molecule": "CN(C(=O)OC(C)(C)C)c1cc(Oc2ccc(OCc3ccccc3)cc2)ccc1[N+](=O)[O-]", "melting point": "108 to 110 °C"}
{"Molecule": "CC[C@@H]1N(c2ccc(C#N)c(Cl)c2C)C(=O)C[C@]1(C)O", "melting point": "156 to 158 °C"}
{"Molecule": "CCNC1CCN(c2c(F)cc3c(=O)c(C(=O)O)cn(C4CC4)c3c2C)CC1(C)C (stereo not given)", "melting point": "201 to 203 °C"}
{"Molecule": "Cc1cc(=O)n(-c2cc3[nH]c(=O)sc3cc2F)c(=O)n1C", "melting point": "> 250 °C"}
{"Molecule": "CN(c1cccc2c(F)c(C3=NCC(CC(=O)O)S3)[nH]c12)S(=O)(=O)c1cccs1 (stereo not given)", "melting point": "213 to 214 °C"}
{"Molecule": "Cc1cc2c(cc1Br)C(=O)CC(C)(C)O2", "melting point": "95 to 96 °C"}
{"Molecule": "O=C1CCC(N2Cc3c(OCc4ccc(CN5CCN(S(=O)(=O)C(F)(F)F)CC5)cc4)cccc3C2=O)C(=O)N1 (stereo not given)", "melting point": "135 to 137 °C"}
{"Molecule": "CCc1c(NC(=O)c2cc(S(C)(=O)=O)ccc2OCC(C)C)c(C(N)=O)nn1CCN1CCOCC1", "melting point": "200 to 203 °C"}
{"Molecule": "O=C1Cc2ccccc2C(c2ccccc2Cl)N1 (stereo not given)", "melting point": "180 to 182 °C"}
